Please provide measured sensor-assay potency score (higher = more potent) for the entries that follow.
Target: SPATA2
Test: pooled miR-30 sensor sort-seq; sequence = guide strand; further: reference of the scale not given here
Details: shRNA
Give bare numbers.

Look over these answered cases.
TCATAGAACTGGATCAGCCGGA: 0.651
TCACTCTTTTTGTAGCAGGGGT: -0.679
TGAGTGGATTTCTAGCATCTGC: -1.11

Report sensor-assay potency score (higher = more potent) for every entry below.
1. TTGATGTAGCCCTTGGAGCTGG
2. TGGAACTGCACGTACTTCCGAA
3. TTGTCCTTCACTTGTGAGTGGA

[-0.512, -0.761, -0.193]

Go through the items and report each one's sensor-assay potency score (higher = more potent).
1. TCTGAGCAGCCACACATCCGGC
2. TTGTGAGTGGATTTCTAGCATC

-1.47
-1.52

* * *

Target: GRAMD1C
Assay: pooled miR-30 sensor sort-seq; sequence = guide strand
Conditions: shRNA
Can you tell me sensor-assay potency score (higher = more potent) for the items I'm about to list?
Answers are plain numbers.

Some entries whose results are on file:
TTGATAGTCAGTACACTTGTAC: 0.115
TTATTTAGTAGATCAAACGTTT: -0.243
TTGCTATAGAAACATAGCCAGT: -1.61

I need sensor-assay potency score (higher = more potent) for every entry listed below, if you could help.
1. ATAATCATCATCAACATGCAGA
2. TAACTCTTGAAAAAATATCTGA

1: 0.0723; 2: -0.51

Need sensor-assay potency score (higher = more potent) for each of these sequences.
1. TATTCTTCTGAATAGTTTCTGC
2. TATAAAGCAACTTACTTCGATA

1. -0.573
2. -0.838

* * *

For each entry below, report its sensor-assay potency score (higher = more potent) value.
Target: TNFAIP6
Assay: pooled miR-30 sensor sort-seq; sequence = guide strand
Conditions: shRNA

Some entries whose results are on file:
TTCCAGTAGAAGTAGTACTTGT: -0.0924
TATTTCAACATAATCAGCCAAG: -1.38
TTGAGTGTCTTCCCATAGCAAG: -1.58
TTGTATTTTTTCCTTGACTGGA: -0.793
TTCAAATTCACACACCGCCTTA: -0.588

Record sensor-assay potency score (higher = more potent) for all entries; do not skip any.
1. TATCTTCGTACTCATTTGGGAA
2. TGAAGCATCACTTAGAAACTTC

1: -0.842; 2: 0.148

* * *

Target: PPP1R15A
Assay: pooled miR-30 sensor sort-seq; sequence = guide strand
Conditions: shRNA
metric_name: sensor-assay potency score (higher = more potent)
One number for each entry.

TTGCCAGAGGAGTCCTAGCTTC: -1.05
TAGAGGTTCTGTGAGCTTCTTT: 0.0683
TCCTTTTACTGCTTCCACCAGC: -1.39

# per-item lookup of sensor-assay potency score (higher = more potent); items listed below
1. TTTACTGCTTCCACCAGCCAGG
2. TGGACAGTGACCTTCTCGGAGA
3. ATGGACAGTGACCTTCTCGGAG

1. -0.645
2. -1.41
3. -1.22

* * *

Biological target: POU2F2
Assay: pooled miR-30 sensor sort-seq; sequence = guide strand
Conditions: shRNA
Exercise: state measured sensor-assay potency score (higher = more potent) for each of the sequences provided.
Answers are plain numbers.

Sample records with sensor-assay potency score (higher = more potent):
TTTGTCTCGATGCTGGTCCTCT: -0.192
TAGATTTGGTGTCGGTAGCAGG: -0.991
TTGATCTTTGTACTGGGGCCAG: -0.786
TTCGGTGTCTGTGTGCTCTGAT: 0.743

Please give the documented sensor-assay potency score (higher = more potent) of "TTCGCTAGAAAACTCTTCTCTA"
0.465
